# SUBJECT OF TEST: T1, alpha-s1 casein from Bos taurus
# T1 chain: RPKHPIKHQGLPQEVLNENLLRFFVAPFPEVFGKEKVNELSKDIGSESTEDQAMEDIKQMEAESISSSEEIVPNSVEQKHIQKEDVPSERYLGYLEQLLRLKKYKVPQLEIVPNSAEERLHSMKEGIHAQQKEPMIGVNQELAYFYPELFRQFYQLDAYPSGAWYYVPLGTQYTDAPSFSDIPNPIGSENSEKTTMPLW
MEASURED PARAMETER: small, 16 hours, 30° C.

Give me measured small, 16 hours, 30° C., please, for this protein: Maxiren (recombinant wild-type calf chymosin B) (protein) GEVASVPLTNYLDSQYFGKIYLGTPPQEFTVLFDTGSSDFWVPSIYCKSNACKNHQRFDPRKSSTFQNLGKPLSIHYGTGSMQGILGYDTVTVSNIVDIQQTVGLSTQEPGDVFTYAEFDGILGMAYPSLASEYSIPVFDNMMNRHLVAQDLFSVYMDRNGQESMLTLGAIDPSYYTGSLHWVPVTVQQYWQFTVDSVTISGVVVACEGGCQAILDTGTSKLVGPSSDILNIQQAIGATQNQYGEFDIDCDNLSYMPTVVFEINGKMYPLTPSAYTSQDQGFCTSGFQSENHSQKWILGDVFIREYYSVFDRANNLVGLAKAI
8.1e+06 Volume
